Test system: MDA-MB-468 breast
procedureText: NCI tumour cell line growth inhibition, 48 h
attributeMeasured: log10 TGI (log10 of the value in µM)
Plainly stated, the numbers are log10 of TGI given in µM.

Ask: Which measured log10 TGI value corresponds to COc1c(B(O)O)cccc1-c1nc2ccc3[nH]ncc3c2c2c1CCCC2 ?
Result: 0.69

Ask: Using the record for O=C(NNc1nc2cc(F)cc(F)c2n2cccc12)c1cnccn1 , report its log10 TGI.
Result: 0.46

Ask: What measured log10 TGI goes with CN(C)CC1C(=O)O[C@H]2[C@H]1CC/C(COC(=O)NCc1ccc(Cn3c(=O)sn(CCCI)c3=O)cc1)=C\CC[C@@]1(C)O[C@@H]21 (stereo not given in full) ?
Result: 0.20

Ask: Could you tell me which log10 TGI is on file for CC1=CC(C)(C)Nc2ccc(Cc3ccc4c(c3)C(C)=CC(C)(C)N4)cc21 ?
Result: 1.21

Ask: Report log10 TGI for CC1=NN(c2cccc(Cl)c2)C(=O)/C1=C\C=C\c1ccccc1 please.
Result: 0.79

Ask: What value of log10 TGI has been reported for the following compound? OC(CN1CCCC2CCCCC21)c1cc2ccccc2c2ccccc12 (stereo not given)
Result: 0.56

Ask: Item under review: CC(C)c1[nH]nc2c(NCc3ccc(-c4ccccn4)cc3)nc(SCCN)nc12 . Reported log10 TGI?
Result: -1.90

---

Test system: MDA-MB-468 breast
procedureText: NCI tumour cell line growth inhibition, 48 h
Would you kindly list TGI for each of these compounds?
Record the value in nM, omitting the unit from your answer.

Ask: Please give the measured TGI for this compound: Cc1nc2c(O)c3c(c(O)c2nc1C)C1C=CC3CC1
Result: 1970

Ask: What value of TGI has been reported for the following compound? O=C(N/N=C/c1cc(Cl)ccc1O)c1ccccc1Nc1ccnc(C(F)(F)F)c1
Result: 2050

Ask: Value lookup for TGI; key = O=C(c1ccc(Cl)cc1)C1[C@H](c2ccccc2Cl)[C@@H](c2ccccc2)NC12C(=O)Nc1ccc(Br)cc12 (stereo partly drawn)
Result: 26900

---

Tested on: MDA-MB-468 breast
procedureText: NCI tumour cell line growth inhibition, 48 h; in the data active = GI50 below about 0.43 µM; inactive = the rest
Permitted responses: TRUE for active, FALSE for inactive

Ask: Hello, I am checking results. What call was entered for CCn1cc(C(=O)N/N=C/c2cccs2)c(=O)c2cc(F)c(N3CCNC(C)C3)c(F)c21 (stereo not given) ?
Result: FALSE

Ask: Give the logged outcome of this assay for the following molecule: CC1=CC(C)(C)Nc2ccc(Cc3ccc4c(c3)C(C)=CC(C)(C)N4)cc21
Result: FALSE

Ask: Assay outcome for COc1ccc2c(CCCc3ccc(Cl)cc3Cl)c3[n+](cc2c1OC)CCc1cc2c(cc1-3)OCO2 : what was it?
Result: TRUE

Ask: Could you kindly confirm the outcome this assay logged for COCCNCc1ccc(-c2cc3nccc(Oc4ccc(NC(=O)C5(C(=O)Nc6ccc(F)cc6)CC5)cc4F)c3s2)nc1 ?
Result: FALSE

Ask: Per the records of this test, what outcome belongs to O=C(N=Nc1c(Cl)c(O)c2ccccc2c1O)C(=O)Nc1cccc(C(F)(F)F)c1 ?
Result: FALSE

Ask: What classification did CC(=O)O[C@@H]1C2=C(C)C3(CC3)[C@@](C)(O)C(=O)C2=C[C@@]1(C)CO end up with in this test?
Result: TRUE

Ask: Test call for this molecule, please: COc1cccc(/C=C/C(=O)c2ccc(OC)c(S(N)(=O)=O)c2)c1
Result: FALSE

Ask: Could you kindly confirm the outcome this assay logged for COc1cc2c3c(n([C@@H]4CCOC4)c(=O)c2cc1OC)-c1cc2c(cc1C3=O)OCO2 ?
Result: TRUE

Ask: Recorded call for O=C(NCc1ccco1)C1CCN(S(=O)(=O)c2ccc(Cl)cc2)CC1 ?
Result: FALSE

Ask: Lab log entry: O=C(N/N=C/c1cc(Cl)ccc1O)c1ccccc1Nc1ccnc(C(F)(F)F)c1 — outcome as called in the assay?
Result: TRUE

Ask: // return assay outcome for OC(CN1CCCC2CCCCC21)c1cc2ccccc2c2ccccc12 (stereo not given)
Result: FALSE

Ask: Record lookup: outcome of this test for CC1=NN(c2cccc(Cl)c2)C(=O)/C1=C\C=C\c1ccccc1 ?
Result: FALSE

Ask: # fetch the recorded call for CN(C)c1cc2c(Nc3ccc4c(cnn4Cc4ccccc4)c3)ncnc2cn1 here
Result: TRUE

Ask: For C=C1C(=O)O[C@H]2[C@H]1CC/C(COC(=O)CCCCCCCC(=O)OC/C1=C/CC[C@@]3(C)O[C@H]3[C@H]3OC(=O)C(=C)[C@@H]3CC1)=C\CC[C@@]1(C)O[C@@H]21 , which call appears in the assay record?
Result: FALSE

Ask: State the result this test recorded for Cc1nc2c(O)c3c(c(O)c2nc1C)C1C=CC3CC1 .
Result: FALSE

---

Test system: MDA-MB-468 breast
procedureText: NCI tumour cell line growth inhibition, 48 h
I'd appreciate it if you could supply TGI values for the items below.

Ask: Name the recorded TGI for O=C(NCc1ccco1)C1CCN(S(=O)(=O)c2ccc(Cl)cc2)CC1 .
Result: > 100 µM

Ask: TGI for Cc1nc2sc(C(=O)Nc3ccccc3)c(N)c2cc1C(O)c1ccccc1 (stereo not drawn) ?
Result: > 65.3 µM

Ask: Recorded TGI of CC(C)c1[nH]nc2c(NCc3ccc(-c4ccccn4)cc3)nc(SCCN(C)C)nc12 , please.
Result: < 0.0238 µM
